As shown below, each of these compounds has a reported MIC value.
# Test system: CANDIDA ALBICANS CCH 442
# test-protocol: In vitro antibacterial activity, MIC, BHI agar dilution
# Format: cell-based
# condition: C. albicans CCH 442, unit assumed

compound	MIC
CC[C@H]1OC(=O)[C@H](C)C(=O)[C@H](C)[C@@H](O[C@@H]2O[C@H](C)C[C@H](N(C)C)[C@H]2O)[C@](C)(OC)C[C@@H](C)C2=NC3CN(CCc4ccccc4[N+](=O)[O-])CC3N3C(=O)O[C@@]1(C)[C@H]3[C@H]2C (some centres unmarked) [Example 119]	> 100 µg/mL
CC[C@H]1OC(=O)[C@H](C)C(=O)[C@H](C)[C@@H](O[C@@H]2O[C@H](C)C[C@H](N(C)C)[C@H]2O)[C@](C)(OC)C[C@@H](C)C2=N[C@H](CN(C)Cc3ccccc3)CN3C(=O)O[C@@]1(C)[C@H]3[C@H]2C [Example 58]	> 100 µg/mL
CC[C@H]1OC(=O)[C@H](C)C(=O)[C@H](C)[C@@H](O[C@@H]2O[C@H](C)C[C@H](N(C)C)[C@H]2O)[C@](C)(OC)C[C@@H](C)C2=NC3CN(CC)CC3N3C(=O)O[C@@]1(C)[C@H]3[C@H]2C (some centres unmarked) [Example 115]	> 100 µg/mL
CC[C@H]1OC(=O)[C@H](C)C(=O)[C@H](C)[C@@H](O[C@@H]2O[C@H](C)C[C@H](N(C)C)[C@H]2O)[C@](C)(OC)C[C@@H](C)C2=NC(COCc3ccccc3)C(COCc3ccccc3)N3C(=O)O[C@@]1(C)[C@H]3[C@H]2C (some centres unmarked) [Example 146]	50 µg/mL
CC[C@H]1OC(=O)[C@H](C)C(=O)[C@H](C)[C@@H](O[C@@H]2O[C@H](C)C[C@H](N(C)C)[C@H]2O)[C@](C)(OC)C[C@@H](C)C2=NC[C@H](COCc3ccc(F)cc3)N3C(=O)O[C@@]1(C)[C@H]3[C@H]2C [Example 71]	> 100 µg/mL
CC[C@H]1OC(=O)[C@H](C)C(=O)[C@H](C)[C@@H](O[C@@H]2O[C@H](C)C[C@H](N(C)C)[C@H]2O)[C@](C)(OC)C[C@@H](C)C2=NC3CN(S(=O)(=O)Cc4ccccc4[N+](=O)[O-])CC3N3C(=O)O[C@@]1(C)[C@H]3[C@H]2C (some centres unmarked) [Example 123]	> 100 µg/mL
CC[C@H]1OC(=O)[C@H](C)C(=O)[C@H](C)[C@@H](O[C@@H]2O[C@H](C)C[C@H](N(C)C)[C@H]2O)[C@](C)(OC)C[C@@H](C)C2=N[C@H](CN3CCN(C)CC3)CN3C(=O)O[C@@]1(C)[C@H]3[C@H]2C [Example 93]	> 100 µg/mL
CC[C@H]1OC(=O)[C@H](C)C(=O)[C@H](C)[C@@H](O[C@@H]2O[C@H](C)C[C@H](N(C)C)[C@H]2O)[C@](C)(OC)C[C@@H](C)C2=NC(COCc3ccc(Cl)cc3)C(COCc3ccc(Cl)cc3)N3C(=O)O[C@@]1(C)[C@H]3[C@H]2C (some centres unmarked) [Example 147]	50 µg/mL
